The reported numbers originate from paper PMC10515640.

- target of assay: 14-3-3σ/C-RAF (Homo sapiens, UniProt P31947)
- Construct: The 14-3-3 σ isoform (full-length for mass spectrometry and fluorescence anisotropy assays, ΔC for crystallography); made in house; host or cells: E. coli Rosetta 2(DE3)pLysS, pPROEX HTb vector
- Sequence (P31947 whole entry, canonical isoform): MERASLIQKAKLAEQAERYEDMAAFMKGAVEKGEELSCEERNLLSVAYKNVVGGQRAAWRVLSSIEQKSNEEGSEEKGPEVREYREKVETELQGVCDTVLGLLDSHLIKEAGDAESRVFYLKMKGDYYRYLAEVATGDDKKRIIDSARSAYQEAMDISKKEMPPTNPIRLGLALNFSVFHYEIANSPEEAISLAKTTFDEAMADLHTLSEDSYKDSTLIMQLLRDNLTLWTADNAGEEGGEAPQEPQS
- test details: Mass spectrometry dose response, compound binding to 14-3-3σ in the presence of C-RAF phosphopeptide
- applied conditions: 100 nM compound, 100 nM 14-3-3σ, C-RAF peptide 18 µM, 24h
measure name: Percentage (%) bound of compound to 14-3-3σ, CRAF 24h
Field: numeric (%). Do not append units.

# compound, assay value
records = [
    ("O=C(CCl)NCC1CCN(C(=O)C2(Nc3ccc(Cl)cc3)CCNCC2)CC1 [compound 131]", 12.5),
    ("O=C(CCl)NCC1CCN(C(=O)C2(Nc3ccc(Cl)cc3)CC2)CC1 [compound 97]", 5.5),
]

Alright, here's another compound for you.
Prompt line: Item O=C(CCl)NCC1CCN(C(=O)C2(Oc3ccc(Cl)cc3)CCOCC2)CC1 [compound 126] has what recorded Percentage (%) bound of compound to 14-3-3σ, CRAF 24h?
Response line: 4.7

###

- target of assay: 14-3-3σ (Homo sapiens, UniProt P31947)
- Construct: The 14-3-3 σ isoform (full-length for mass spectrometry and fluorescence anisotropy assays, ΔC for crystallography); made in house; host or cells: E. coli Rosetta 2(DE3)pLysS, pPROEX HTb vector
- test details: Mass spectrometry dose response, compound binding to 14-3-3σ in the absence of peptide (apo)
- applied conditions: 100 nM compound, 100 nM 14-3-3σ, 16h
measure name: Percentage (%) bound of compound to 14-3-3σ, APO 16h
Field: numeric (%). Do not append units.

# molecule, assay value
data = [
    ("NC1CCC(Oc2ccc(Cl)cc2)(C(=O)N2CCC(CNC(=O)CCl)CC2)CC1 (stereo not drawn) [compound 135]", 1.8),
    ("CC1(C)CC(Nc2ccc(Cl)cc2)(C(=O)N2CCC(CNC(=O)CCl)CC2)CC(C)(C)O1 [compound 179]", 0.3),
    ("CC1CC(Nc2ccc(Cl)cc2)(C(=O)NCC2CC3(CCN(C(=O)CCl)CC3)C2)CC(C)O1 (stereo not drawn) [compound 180]", 7.3),
    ("O=C(CCl)NCC1CCN(C(=O)C2(Nc3ccc(Cl)cc3)CCCC2)CC1 [compound 118]", 0.8),
    ("O=C(CCl)NCC1CCN(C(=O)C2(Nc3ccc(Cl)cc3)CCNCC2)CC1 [compound 131]", 5.8),
]

Alright, here's another molecule for you.
Prompt line: // map O=C(CCl)NCC1CCN(C(=O)C2(Nc3ccccc3)CCC2)CC1 [compound 98] to recorded Percentage (%) bound of compound to 14-3-3σ, APO 16h (system: 14-3-3σ (Homo sapiens, UniProt P31947))
Response line: 4.0

###

- target of assay: 14-3-3σ (Homo sapiens)
- Construct: The 14-3-3 σ isoform (full-length for mass spectrometry and fluorescence anisotropy assays, ΔC for crystallography); made in house; host or cells: E. coli Rosetta 2(DE3)pLysS, pPROEX HTb vector
- test details: Mass spectrometry dose response, compound binding to 14-3-3σ in the absence of peptide (apo)
- applied conditions: 100 nM compound, 100 nM 14-3-3σ, 16h
A collection of molecules and their measured Percentage (%) bound of compound to 14-3-3σ, APO 16h
Field: numeric (%). Do not append units.

Before answering, review these 3 worked examples.
# molecule, target of assay, unit of measurement, assay value
measured = [
    ("NC1CCC(Nc2ccc(Cl)cc2)(C(=O)N2CCC(CNC(=O)CCl)CC2)CC1 (stereo not shown) [compound 137]", "14-3-3σ (Homo sapiens)", "%", 3.2),
    ("O=C(CCl)CCC1CCN(C(=O)C2(Nc3ccc(Cl)cc3)CCOCC2)CC1 [compound 156]", "14-3-3σ (Homo sapiens)", "%", 70.7),
    ("Cl.O=C(CCl)NCC1CCN(C(=O)C2(Oc3ccc(Cl)cc3)CCNCC2)CC1 [compound 129]", "14-3-3σ (Homo sapiens)", "%", 2.4),
]

Alright, here's another molecule for you.
Prompt line: Item O=C(CCl)NCC1CCN(C(=O)C2(Nc3ccc(Cl)cc3)CC2)CC1 [compound 97] has what recorded Percentage (%) bound of compound to 14-3-3σ, APO 16h?
Response line: 0.8

###

A collection of molecules and their measured pEC50
- target of assay: 14-3-3σ/ERα (Homo sapiens, UniProt P03372+P31947)
- Construct: The 14-3-3 σ isoform (full-length for mass spectrometry and fluorescence anisotropy assays, ΔC for crystallography); made in house; host or cells: E. coli Rosetta 2(DE3)pLysS, pPROEX HTb vector
- Sequence (P31947 whole entry, other chains not shown, canonical isoform): as the sequence (P31947 whole entry, canonical isoform) above
- test details: Fluorescence anisotropy compound titration, FAM-labeled ERα peptide
- Type: binding
- applied conditions: 10 nM ERα-FAM labeled peptide, 1 µM 14-3-3σ, overnight incubation (24 h); read-out: EC50 value ERα (FA compound titration)
FYI, pEC50 means -log10 of a concentration in mol per litre.

Before answering, review these 5 worked examples.
# molecule, pEC50
rows = [
    ("O=C(CCl)NCC1CCN(C(=O)C2(Oc3ccc(Cl)cc3)CC2)CC1", 4.17),
    ("O=C(CCl)CCC1CCN(C(=O)C2(Nc3ccc(Cl)cc3)CCOCC2)CC1", 5.30),
    ("O=C(CCl)NCC1CCN(C(=O)C2(Nc3ccc(Cl)cc3)CCC(F)(F)CC2)CC1", 4.92),
    ("O=C(CCl)NCC1CCN(C(=O)C2(Oc3ccccc3)CCCC2)CC1", 4.62),
    ("NC1CCC(Oc2ccc(Cl)cc2)(C(=O)N2CCC(CNC(=O)CCl)CC2)CC1 (stereo not drawn)", 4.43),
]

Prompt line: Item CC1(C)CC(Nc2ccc(Cl)cc2)(C(=O)N2CCC(CNC(=O)CCl)CC2)CC(C)(C)O1 has what recorded pEC50?
Response line: 4.64

Prompt line: What about O=C(CCl)N1CCC2(CC1)CC(NC(=O)C1(Nc3ccc(Cl)cc3)CCOCC1)C2 ?
Response line: 5.40

Prompt line: What about O=C(CCl)NCC1CCN(C(=O)C2(Nc3ccc(Cl)cc3)CCOCC2)CC1 ?
Response line: 5.70

Prompt line: What about O=C(CCl)NCC1CCN(C(=O)C2(Nc3ccc(Cl)cc3)CCCCC2)CC1 ?
Response line: 5.10

Prompt line: What about CC1CC(Nc2ccc(Cl)cc2)(C(=O)N2CCC(CNC(=O)CCl)CC2)CC(C)O1 (stereo not drawn) ?
Response line: 4.92

Prompt line: What about CC(C)(Oc1ccc(Cl)cc1)C(=O)N1CCC(CCC(=O)CCl)CC1 ?
Response line: 4.36

Prompt line: What about O=C(CCl)NCCC1CCN(C(=O)C2(Nc3ccc(Cl)cc3)CCNCC2)CC1 ?
Response line: 4.80

Prompt line: What about O=C(CCl)NCC1CCN(C(=O)C2(Oc3ccc(Cl)cc3)CCCCC2)CC1 ?
Response line: 4.26

###

- target of assay: 14-3-3σ/C-RAF (Homo sapiens, UniProt P31947)
- Construct: The 14-3-3 σ isoform (full-length for mass spectrometry and fluorescence anisotropy assays, ΔC for crystallography); made in house; host or cells: E. coli Rosetta 2(DE3)pLysS, pPROEX HTb vector
- test details: Mass spectrometry dose response, compound binding to 14-3-3σ in the presence of C-RAF phosphopeptide
- applied conditions: 100 nM compound, 100 nM 14-3-3σ, C-RAF peptide 18 µM, 8h
- Excerpt: Two orthogonal assays were developed for screening. For the primary assay, mass spectrometry (MS) was used to monitor the formation of the covalent bond between the compound and the native cysteine (Cys38 on 14-3-3σ) (Figure 1D). […] As a secondary assay, fluorescence anisotropy (FA) was used. […]
A collection of compounds and their measured Percentage (%) bound of compound to 14-3-3σ, CRAF 8h
Field: numeric (%). Do not append units.

# compound, assay value
records = [
    ("O=C(CCl)N1CCC2(CC1)CC(CNC(=O)C1(Nc3ccc(Cl)cc3)CCOCC1)C2 [compound 175]", 6.0),
    ("CC(C)(Oc1ccc(Cl)cc1)C(=O)N1CCC(CCNC(=O)CCl)CC1 [compound 28]", 7.5),
]

Alright, here's another compound for you.
Prompt line: Item O=C(CCl)NC1CC2(CCN(C(=O)C3(Nc4ccc(Cl)cc4)CCOCC3)CC2)C1 [compound 166] has what recorded Percentage (%) bound of compound to 14-3-3σ, CRAF 8h?
Response line: 4.0

###

- target of assay: 14-3-3σ/ERα (Homo sapiens, UniProt P03372+P31947)
- Construct: The 14-3-3 σ isoform (full-length for mass spectrometry and fluorescence anisotropy assays, ΔC for crystallography); made in house; host or cells: E. coli Rosetta 2(DE3)pLysS, pPROEX HTb vector
- test details: Mass spectrometry dose response, compound binding to 14-3-3σ in the presence of ERα phosphopeptide
- applied conditions: 100 nM compound, 100 nM 14-3-3σ, ERα-peptide 2 µM, 1h
measure name: Percentage (%) bound of compound to 14-3-3σ, ERα 1h
Field: numeric (%). Do not append units.

# compound, assay value
records = [
    ("C=CS(=O)(=O)NCC1CCN(C(=O)C2(Nc3ccc(Cl)cc3)CCOCC2)CC1 [compound 155]", 0.6),
    ("CC1CC(Nc2ccc(Cl)cc2)(C(=O)N2CCC(CNC(=O)CCl)CC2)CC(C)O1 (stereo not drawn) [compound 178]", 24.6),
    ("O=C(CCl)NCC1CCN(C(=O)C2(Nc3ccc(Cl)cc3)CCOCC2)CC1 [compound 127]", 9.5),
]

Prompt line: // map CC(C)(Oc1ccc(Cl)cc1)C(=O)N1CCC(CCCNC(=O)CCl)CC1 [compound 29] to recorded Percentage (%) bound of compound to 14-3-3σ, ERα 1h (system: 14-3-3σ/ERα (Homo sapiens, UniProt P03372+P31947))
Response line: 0.4

Prompt line: What about O=C(CCl)NCCCC1CCN(C(=O)C2(Nc3ccc(Cl)cc3)CCOCC2)CC1 [compound 149] ?
Response line: 7.6

Prompt line: What about O=C(CCl)N1CCC2(CC1)CN(C(=O)C1(Nc3ccc(Cl)cc3)CCOCC1)C2 [compound 161] ?
Response line: 4.7

Prompt line: What about O=C(CCl)NCC1CCN(C(=O)C2(Oc3ccccc3)CCCC2)CC1 [compound 119] ?
Response line: 1.9

Prompt line: What about O=C(CCl)N1CC2(CCN(C(=O)C3(Nc4ccc(Cl)cc4)CCOCC3)CC2)C1 [compound 160] ?
Response line: 6.9

Prompt line: What about O=C(CCl)NCCC1CCN(C(=O)C2(Nc3ccc(Cl)cc3)CCNCC2)CC1 [compound 151] ?
Response line: 6.5

Prompt line: What about O=C(CCl)NCC1CCN(C(=O)C2(Oc3ccc(Cl)cc3)CC2)CC1 [compound 93] ?
Response line: 0

Prompt line: What about O=C(CCl)NC1CC2(CCN(C(=O)C3(Nc4ccc(Cl)cc4)CCOCC3)CC2)C1 [compound 166] ?
Response line: 32.6

Prompt line: What about CC(C)(Oc1ccc(Cl)cc1)C(=O)N1CCC(CCC(=O)CCl)CC1 [compound 37] ?
Response line: 56.4

Prompt line: What about O=C(CCl)NCC1CCN(C(=O)C2(Nc3ccc(Cl)cc3)CCCCC2)CC1 [compound 123] ?
Response line: 3.4

Prompt line: What about O=C(CCl)NCC1CCN(C(=O)C2(Nc3ccc(Cl)cc3)CCC(F)(F)CC2)CC1 [compound 125] ?
Response line: 13.8

Prompt line: What about O=C(CCl)NCCCC1CCN(C(=O)C2(Nc3ccc(Cl)cc3)CCNCC2)CC1 [compound 153] ?
Response line: 23.1

Prompt line: What about O=C(CCl)NCC1CCN(C(=O)C2(Oc3ccc(Cl)cc3)CCOCC2)CC1 [compound 126] ?
Response line: 1.7

Prompt line: What about CC1(C)CC(Nc2ccc(Cl)cc2)(C(=O)N2CCC(CNC(=O)CCl)CC2)CC(C)(C)O1 [compound 179] ?
Response line: 1.5

Prompt line: What about O=C(CCl)NCC1CCN(C(=O)C2(Nc3ccccc3)CCCCC2)CC1 [compound 121] ?
Response line: 0

Prompt line: What about Cl.NC1CCC(Nc2ccccc2)(C(=O)N2CCC(CNC(=O)CCl)CC2)CC1 (stereo not drawn) [compound 141] ?
Response line: 1.0

Prompt line: What about O=C(CCl)N1CCC2(CC1)CCN(C(=O)C1(Nc3ccc(Cl)cc3)CCOCC1)CC2 [compound 170] ?
Response line: 38.2

Prompt line: What about CC(C)(Nc1ccccc1)C(=O)N1CCC(CNC(=O)CCl)CC1 [compound 85] ?
Response line: 0.9
